target: Cyclin-dependent kinase 5/CDK5 activator 1 (Homo sapiens); experiment: Inhibition of human cdk5/p25 by SPA
Threshold 400 nM. IC50 below it: True. IC50 at it or above: False.

record smiles: N#CCSc1nnc(Cc2csc(NC(=O)CCl)n2)n1NC(=O)c1ccc(Cl)cc1
cat: False

record smiles: CC(=O)Nc1nc(Cc2nnc(SCC(=O)NNC(=O)CCl)n2NC(C)=O)cs1
cat: False

record smiles: CC(=O)Nc1nc(Cc2nnc(SCSc3nnc(Cc4csc(NC(C)=O)n4)n3NC(=O)c3ccc(Cl)cc3)n2NC(=O)c2ccc(Cl)cc2)cs1
cat: True

record smiles: O=C(O)CCNc1nc(Cc2nnc(SCC(=O)N/N=C/c3ccccc3)n2NC(=O)c2ccc(Cl)cc2)cs1
cat: True

record smiles: CC(=O)Nn1c(Cc2csc(NCCC(=O)O)n2)nnc1SCC#N
cat: False

---

organism: Homo sapiens; test: Selectivity for human cdk5/[…] over human cdk2/cyclin E
Threshold 20. Ratio IC50 below it: true (1). Ratio IC50 at it or above: false (0).

record smiles: NNC(=O)CSc1nnc(Cc2csc(NC(=O)c3ccccc3)n2)n1NC(=O)c1ccc(Cl)cc1
cat: true (1)

record smiles: CC(=O)Nc1nc(Cc2nnc(S)n2N)cs1
cat: true (1)

record smiles: CC(=O)Nc1nc(Cc2nnc(SCC(=O)NN)n2NC(=O)c2ccc(Cl)cc2)cs1
cat: true (1)

record smiles: CC(=O)Nc1nc(Cc2nnc(SCC(=O)N/N=C/c3ccccc3)n2NC(=O)c2ccc(Cl)cc2)cs1
cat: true (1)

record smiles: NNC(=O)CSc1nnc(Cc2csc(NCCC(=O)O)n2)n1NC(=O)c1ccc(Cl)cc1
cat: false (0)

record smiles: N#CCSc1nnc(Cc2csc(NC(=O)c3ccccc3)n2)n1NC(=O)c1ccc(Cl)cc1
cat: false (0)

record smiles: O=C(CSc1nnc(Cc2csc(NC(=O)CCl)n2)n1NC(=O)c1ccc(Cl)cc1)N/N=C/c1ccccc1
cat: true (1)

record smiles: CC(=O)Nc1nc(Cc2nnc(SCC#N)n2NC(=O)c2ccc(Cl)cc2)cs1
cat: true (1)

---

molecular target: Cyclin-dependent kinase 5/CDK5 activator 1 (Homo sapiens, UniProt Q00535); test: Inhibition of human cdk5/p25 by SPA; format: protein-complex assay
Sequence (Q00535 whole entry): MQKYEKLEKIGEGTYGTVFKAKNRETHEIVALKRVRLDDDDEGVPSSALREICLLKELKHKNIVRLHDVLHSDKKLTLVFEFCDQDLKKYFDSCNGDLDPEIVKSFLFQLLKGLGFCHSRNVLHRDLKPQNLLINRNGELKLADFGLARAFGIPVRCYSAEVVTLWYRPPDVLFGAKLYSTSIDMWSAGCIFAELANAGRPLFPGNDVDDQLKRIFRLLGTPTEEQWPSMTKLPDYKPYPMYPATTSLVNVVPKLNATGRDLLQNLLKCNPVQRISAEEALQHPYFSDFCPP
Sequence (Q15078 whole entry, further chain): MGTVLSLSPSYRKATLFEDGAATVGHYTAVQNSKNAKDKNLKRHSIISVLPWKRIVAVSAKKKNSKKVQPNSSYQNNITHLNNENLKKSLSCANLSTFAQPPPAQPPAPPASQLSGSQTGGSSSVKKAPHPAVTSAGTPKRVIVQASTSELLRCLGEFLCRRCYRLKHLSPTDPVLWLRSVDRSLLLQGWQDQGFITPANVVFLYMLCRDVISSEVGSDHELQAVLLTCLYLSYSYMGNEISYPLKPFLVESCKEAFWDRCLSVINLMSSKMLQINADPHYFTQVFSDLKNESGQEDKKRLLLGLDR
Recorded log10 IC50 for the following compounds
readout kind: log10 IC50 (log10 of the value in nM)

record smiles: NNC(=O)CSc1nnc(Cc2csc(NC(=O)c3ccccc3)n2)n1NC(=O)c1ccc(Cl)cc1
value reported: 1.53
//
record smiles: O=C(Nc1nc(Cc2nnc(SCSc3nnc(Cc4csc(NC(=O)c5ccccc5)n4)n3NC(=O)c3ccccc3)n2NC(=O)c2ccccc2)cs1)c1ccccc1
value reported: 2.84
//
record smiles: O=C(O)CCNc1nc(Cc2nnc(SCC(=O)NNC(=O)CCl)n2NC(=O)c2ccccc2)cs1
value reported: 2.66
//
record smiles: CC(=O)Nc1nc(Cc2nnc(SCC(=O)N/N=C/c3ccccc3)n2NC(=O)c2ccc(Cl)cc2)cs1
value reported: 1.48
//
record smiles: O=C(CCl)Nc1nc(Cc2nnc(SCSc3nnc(Cc4csc(NC(=O)CCl)n4)n3NC(=O)c3ccccc3)n2NC(=O)c2ccccc2)cs1
value reported: 2.83
//
record smiles: COC(=O)CSc1nnc(Cc2csc(NC(=O)c3ccccc3)n2)n1NC(C)=O
value reported: 2.78
//
record smiles: O=C(CCl)Nc1nc(Cc2n[nH]c(=S)n2NC(=O)c2ccccc2)cs1
value reported: 2.88
//
record smiles: N#CCSc1nnc(Cc2csc(NCCC(=O)O)n2)n1NC(=O)c1ccc(Cl)cc1
value reported: 2.63

---

biological target: Cyclin-dependent kinase 5/CDK5 activator 1 (Homo sapiens, UniProt Q00535); assay: Inhibition of human cdk5/p25 by SPA
pIC50: −log10 of the molar value.
Recorded pIC50 for the following molecules

record smiles: CC(=O)Nc1nc(Cc2nnc(SCC(=O)NN)n2NC(=O)c2ccc(Cl)cc2)cs1
pIC50: 7.14
//
record smiles: O=C(O)CCNc1nc(Cc2n[nH]c(=S)n2NC(=O)c2ccc(Cl)cc2)cs1
pIC50: 6.34
//
record smiles: CC(=O)NNC(=O)CSc1nnc(Cc2csc(NC(C)=O)n2)n1NC(=O)c1ccc(Cl)cc1
pIC50: 6.19
//
record smiles: NNC(=O)CSc1nnc(Cc2csc(NC(=O)CCl)n2)n1NC(=O)c1ccccc1
pIC50: 6.61
//
record smiles: CC(=O)Nc1nc(Cc2nnc(SCC#N)n2NC(=O)c2ccccc2)cs1
pIC50: 6.40
//
record smiles: CC(=O)NNC(=O)CSc1nnc(Cc2csc(NC(=O)c3ccccc3)n2)n1NC(C)=O
pIC50: 6.19
//
record smiles: Nn1c(S)nnc1CSc1nnc(Cc2csc(NC(=O)CCl)n2)n1NC(=O)c1ccccc1
pIC50: 5.16
//
record smiles: CC(=O)Nc1nc(Cc2nnc(SCC(=O)NNC(=O)c3ccccc3)n2NC(=O)c2ccccc2)cs1
pIC50: 6.38
//
record smiles: CC(=O)Nn1c(Cc2csc(NC(=O)c3ccccc3)n2)nnc1SCC#N
pIC50: 6.24
//
record smiles: O=C(O)CCNc1nc(Cc2nnc(SCC(=O)NNC(=O)c3ccccc3)n2NC(=O)c2ccc(Cl)cc2)cs1
pIC50: 6.57
//
record smiles: O=C(CSc1nnc(Cc2csc(NC(=O)CCl)n2)n1NC(=O)c1ccc(Cl)cc1)NNC(=O)c1ccccc1
pIC50: 6.19
//
record smiles: CC(=O)Nn1c(Cc2csc(NCCC(=O)O)n2)n[nH]c1=S
pIC50: 6.36
//
record smiles: CC(=O)Nn1c(Cc2csc(NC(=O)c3ccccc3)n2)nnc1SCC(=O)N/N=C/c1ccccc1
pIC50: 6.33
//
record smiles: O=C(CCl)NNC(=O)CSc1nnc(Cc2csc(NC(=O)CCl)n2)n1NC(=O)c1ccc(Cl)cc1
pIC50: 6.65
//
record smiles: COC(=O)CSc1nnc(Cc2csc(NCCC(=O)O)n2)n1NC(=O)c1ccc(Cl)cc1
pIC50: 6.25
//
record smiles: CC(=O)Nc1nc(Cc2nnc(SCSc3nnc(Cc4csc(NC(C)=O)n4)n3NC(=O)c3ccccc3)n2NC(=O)c2ccccc2)cs1
pIC50: 6.19
//
record smiles: O=C(CCl)NNC(=O)CSc1nnc(Cc2csc(NC(=O)c3ccccc3)n2)n1NC(=O)c1ccccc1
pIC50: 6.27
//
record smiles: NNC(=O)CSc1nnc(Cc2csc(NC(=O)CCl)n2)n1NC(=O)c1ccc(Cl)cc1
pIC50: 7.36
//
record smiles: COC(=O)CSc1nnc(Cc2csc(NC(=O)CCl)n2)n1NC(=O)c1ccc(Cl)cc1
pIC50: 6.36

---

biological target: Cyclin-dependent kinase 2/cyclin E (Homo sapiens, UniProt P24941); experiment: Inhibition of human cdk2/cyclin E by SPA; assay type: protein-complex assay
pIC50: −log10 of the molar value.
readout kind: pIC50

record smiles: N#CCSc1nnc(Cc2csc(NC(=O)c3ccccc3)n2)n1NC(=O)c1ccc(Cl)cc1
readout kind: pIC50
value reported: 5.87
--
record smiles: O=C(CSc1nnc(Cc2csc(NC(=O)CCl)n2)n1NC(=O)c1ccc(Cl)cc1)N/N=C/c1ccccc1
readout kind: pIC50
value reported: 7.29
--
record smiles: CC(=O)Nc1nc(Cc2nnc(SCC#N)n2NC(=O)c2ccc(Cl)cc2)cs1
readout kind: pIC50
value reported: 5.94
--
record smiles: NNC(=O)CSc1nnc(Cc2csc(NCCC(=O)O)n2)n1NC(=O)c1ccc(Cl)cc1
readout kind: pIC50
value reported: 5.20
--
record smiles: CC(=O)Nc1nc(Cc2nnc(SCC(=O)N/N=C/c3ccccc3)n2NC(=O)c2ccc(Cl)cc2)cs1
readout kind: pIC50
value reported: 6.29
--
record smiles: NNC(=O)CSc1nnc(Cc2csc(NC(=O)CCl)n2)n1NC(=O)c1ccc(Cl)cc1
readout kind: pIC50
value reported: 6.05
--
record smiles: NNC(=O)CSc1nnc(Cc2csc(NC(=O)c3ccccc3)n2)n1NC(=O)c1ccc(Cl)cc1
readout kind: pIC50
value reported: 6.33
--
record smiles: CC(=O)Nc1nc(Cc2nnc(S)n2N)cs1
readout kind: pIC50
value reported: 7.30
--
record smiles: CC(=O)Nc1nc(Cc2nnc(SCC(=O)NN)n2NC(=O)c2ccc(Cl)cc2)cs1
readout kind: pIC50
value reported: 6.20

---

Recorded IC50 for the following compounds
target: Cyclin-dependent kinase 5/CDK5 activator 1 (Homo sapiens); assay: Inhibition of human cdk5/p25 by SPA

record smiles: O=C(O)CCNc1nc(Cc2nnc(SCSc3nnc(Cc4csc(NCCC(=O)O)n4)n3NC(=O)c3ccc(Cl)cc3)n2NC(=O)c2ccc(Cl)cc2)cs1
IC50 (nM): 168

record smiles: CC(=O)Nn1c(Cc2csc(NCCC(=O)O)n2)nnc1SCC(=O)NNC(=O)CCl
IC50 (nM): 264

record smiles: CC(=O)Nn1c(Cc2csc(NC(=O)CCl)n2)nnc1SCC#N
IC50 (nM): 415

record smiles: CC(=O)Nn1c(Cc2csc(NCCC(=O)O)n2)nnc1SCSc1nnc(Cc2csc(NCCC(=O)O)n2)n1NC(C)=O
IC50 (nM): 743

record smiles: CC(=O)Nn1c(S)nnc1Cc1csc(NC(=O)c2ccccc2)n1
IC50 (nM): 614
